Source of measurements: ChEMBL document CHEMBL1151859

Items are presented alongside their recorded IC50.
targetOrTestSystem: Lethal factor (Bacillus anthracis, UniProt P15917)
The figure you give is taken to be in µM; do not add the unit.

> print(dat)
                               smilesrecord  unitslabel  assayvalue
1  O=S(=O)(Nc1sccc1-c1nc2ccccc2s1)c1ccccc1C(F)(F)F          µM         9.3
2  O=S(=O)(Nc1sccc1-c1nc2ccccc2s1)c1ccc2c(c1)OCCO2          µM          27
3  O=S(=O)(Nc1sccc1-c1nc2ccccc2s1)c1cccc(-c2ccc(Cl)cc2)c1          µM          18

Here is the next item to consider.
Problem: // lookup IC50 for `Cc1csc(NS(=O)(=O)c2ccc(-c3ccccc3)cc2)c1-c1nc2ccccc2s1`
Solution: 17

---

assayMethodText: Chemical stability of the compound
Assay type: physicochemical
recordedMetric: Stability (%)
Give your result in % as a bare value.

Here is how some molecules turned out for Stability.
> print(dat)
                               smilesrecord  assayvalue
1  COc1ccc(-c2ccc(S(=O)(=O)Nc3sccc3-c3nc4ccccc4s3)cc2)cc1          84
2  O=S(=O)(Nc1sccc1-c1nc2ccccc2s1)c1ccc2ncsc2c1        99.9
3  Cc1ccc(S(=O)(=O)Nc2sccc2-c2nc3ccccc3s2)cc1Cl          99

Problem: State the recorded Stability for this entry: `Cc1csc(NS(=O)(=O)c2ccc([N+](=O)[O-])cc2)c1-c1nc2ccccc2s1`
Solution: 99

---

targetOrTestSystem: Lethal factor (Bacillus anthracis, UniProt P15917)
Sequence (P15917 whole entry): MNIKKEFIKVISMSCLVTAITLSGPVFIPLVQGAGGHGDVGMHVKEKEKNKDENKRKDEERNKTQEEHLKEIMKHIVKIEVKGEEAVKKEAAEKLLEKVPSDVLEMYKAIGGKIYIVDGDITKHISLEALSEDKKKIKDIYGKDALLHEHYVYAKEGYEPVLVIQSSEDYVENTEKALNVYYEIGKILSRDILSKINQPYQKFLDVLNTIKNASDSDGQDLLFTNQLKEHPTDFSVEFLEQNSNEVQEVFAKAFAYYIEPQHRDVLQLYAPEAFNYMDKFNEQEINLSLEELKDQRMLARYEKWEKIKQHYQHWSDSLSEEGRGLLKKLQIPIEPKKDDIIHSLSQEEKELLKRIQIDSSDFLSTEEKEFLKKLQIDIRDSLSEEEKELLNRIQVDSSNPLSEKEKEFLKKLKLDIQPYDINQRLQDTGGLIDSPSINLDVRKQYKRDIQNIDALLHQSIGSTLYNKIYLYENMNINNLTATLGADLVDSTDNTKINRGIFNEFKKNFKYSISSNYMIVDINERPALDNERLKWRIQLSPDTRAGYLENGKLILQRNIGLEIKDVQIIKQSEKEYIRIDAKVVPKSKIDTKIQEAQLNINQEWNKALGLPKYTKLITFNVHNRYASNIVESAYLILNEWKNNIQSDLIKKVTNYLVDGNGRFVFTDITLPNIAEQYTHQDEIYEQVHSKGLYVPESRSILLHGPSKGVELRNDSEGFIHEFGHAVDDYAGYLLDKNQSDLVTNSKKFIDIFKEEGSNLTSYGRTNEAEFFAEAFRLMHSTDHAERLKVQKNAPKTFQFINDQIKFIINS
Recorded pIC50 for the following molecules
Give only the number. pIC50 is defined as minus log10 of concentration in molar units.

Reference set, count: 6
> print(dat)
                               smilesrecord  recordedmetric  assayvalue
1  Cc1ccc(S(=O)(=O)Nc2scc(C)c2-c2nc3ccccc3s2)cc1F           pIC50        4.46
2  CN1CCOc2cc(S(=O)(=O)Nc3sccc3-c3nc4ccccc4s3)cnc21           pIC50        4.57
3  CC(=O)Nc1ccc(S(=O)(=O)Nc2scc(C)c2-c2nc3ccccc3s2)cc1           pIC50        4.85
4  COc1ccc(-c2ccc(S(=O)(=O)Nc3sccc3-c3nc4ccccc4s3)cc2)cc1OC           pIC50        5.05
5  Cc1nnc(-c2cccc(S(=O)(=O)Nc3sccc3-c3nc4ccccc4s3)c2)o1           pIC50        4.60
6  O=S(=O)(Nc1sccc1-c1nc2ccccc2s1)c1ccc2cc(Cl)ccc2c1           pIC50        4.96

Now turn to the next molecule.
Problem: # returns recorded pIC50 (system: Lethal factor (Bacillus anthracis, UniProt P15917)) for `O=S(=O)(Nc1sccc1-c1nc2ccccc2s1)c1cccc(-c2ccccc2)c1`
Solution: 4.89
